- MEASUREMENT PROTOCOL: NCI Yeast Anticancer Drug Screen. Data for the mec2-1 strain (AID 157)
- RUN PARAMETERS: S. cerevisiae mec2-1 strain, at 50.0 µM
Compounds without any hit were thinned out: in the full panel of roughly 79,000, 15% have a hit. Calls of active or inactive are those of the source. Rule as the data show it: active = growth inhibition above about 70%; inactive = the rest.
Can you answer with just one of these options? TRUE for active, FALSE for inactive

Query: Kindly provide the recorded test outcome for the following compound: CCC1=C(CC2NCCc3ccccc32)CC2c3cc(OC)c(OC)cc3CCN2C1 (configuration not stated)
Result: FALSE

Query: Kindly provide the recorded test outcome for the following compound: O=C(Nc1ccccc1)Oc1ccc(C2CCCCC2)cc1
Result: FALSE

Query: Kindly provide the recorded test outcome for the following compound: O=[N+]([O-])c1ccc(C2=NCC=CCO2)cc1
Result: FALSE

Query: Kindly provide the recorded test outcome for the following compound: CCOc1ccccc1N1C(=O)C(=O)C(c2nc3ccccc3o2)C(=O)C1=O
Result: FALSE

Query: Kindly provide the recorded test outcome for the following compound: NC1(C(=O)O)CC(O)(c2ccccc2)C(O)(c2ccccc2)C1 (configuration not stated)
Result: FALSE

Query: Kindly provide the recorded test outcome for the following compound: Cc1csc2nc(-c3ccccc3)[nH]c(=S)c12
Result: FALSE

Query: Kindly provide the recorded test outcome for the following compound: CCNC(=O)c1ccc(Cl)cc1
Result: FALSE

Query: Kindly provide the recorded test outcome for the following compound: CN(C)C(=S)SCCC(=O)O
Result: FALSE

Query: Kindly provide the recorded test outcome for the following compound: CC12CCC(C1)C(C)(C)/C2=N\O (configuration not stated)
Result: FALSE

Query: Kindly provide the recorded test outcome for the following compound: CC(C)=CCNc1ccccc1
Result: FALSE

Query: Kindly provide the recorded test outcome for the following compound: Cc1ccc(-c2nnc(NC(=O)Nc3ccc(Cl)cc3)o2)cc1
Result: FALSE

Query: Kindly provide the recorded test outcome for the following compound: Cc1cccc[n+]1[O-]
Result: FALSE

Query: Kindly provide the recorded test outcome for the following compound: O=C1NC(=O)C2(CCN(Cc3ccccc3)CC2)N1c1ccccc1
Result: FALSE

Query: Kindly provide the recorded test outcome for the following compound: C/C(CC(=O)Nc1ccc([N+](=O)[O-])cc1)=N/N=C(N)N
Result: FALSE

Query: Kindly provide the recorded test outcome for the following compound: O=C(Cc1ccccc1)N(Cc1ccccc1)Cc1ccccc1
Result: TRUE

Query: Kindly provide the recorded test outcome for the following compound: O=[N+]([O-])c1ccn(O)c(=Nc2ccccc2)c1
Result: FALSE

Query: Kindly provide the recorded test outcome for the following compound: N#Cc1c(-c2ccccc2)c(C#N)c(=O)n(N)c1N
Result: FALSE

* * *

- MEASUREMENT PROTOCOL: NCI Yeast Anticancer Drug Screen. Data for the mlh1 rad18 strain (AID 175)
- RUN PARAMETERS: S. cerevisiae mlh1 rad18 strain growth inhibition; at 50.0 µM; hits give high values
- Experimental: Growth inhibition of yeast strains with defined genetic alterations is measured as a screen for potential anti-cancer activity. Selected strains with alterations in DNA damage repair or cell cycle control were exposed to compounds and growth inhibition was measured relative to vehicle treated controls. The strain used in this assay is mlh1 rad18
This is part of a sample that, as a whole, favours compounds with a hit. Of some 79,000 tested, about 15% had one in any assay.
# thresholds on growth inhibition define classes: range A: < -10%; range B: ≥ -10% and < 10%; range C: ≥ 10%

Query: Band for the recorded growth inhibition of N#CC(NNC(=O)c1ccccc1O)c1cccc(O)c1 (stereo not drawn) ?
Result: range A

Query: Band for the recorded growth inhibition of CC(C)c1cc(C(F)(F)F)nc(NNc2nc(C(C)C)cc(C(F)(F)F)n2)n1 ?
Result: range A

Query: Band for the recorded growth inhibition of CC(C)(C)c1ccc(Oc2nc(Oc3ccc(C(C)(C)C)cc3)nc(Oc3ccc(C(C)(C)C)cc3)n2)cc1 ?
Result: range C

Query: Band for the recorded growth inhibition of C/C(=N\N=P(c1ccccc1)(c1ccccc1)c1ccccc1)c1ccccc1 ?
Result: range A

Query: Band for the recorded growth inhibition of OC[C@@H](O)[C@H]1NC[C@@H](O)[C@H]1O ?
Result: range A

Query: Band for the recorded growth inhibition of Cc1c(Cl)c2ccccc2n1S(=O)(=O)c1ccccc1 ?
Result: range C

Query: Band for the recorded growth inhibition of Cc1c(N=Nc2cccc(F)c2)c(-c2ccccc2)nn1C(=S)S ?
Result: range C

Query: Band for the recorded growth inhibition of COc1ccc2cc1Oc1ccc(cc1)CC1c3cc(c(OC)cc3CCN1C)Oc1c(O)c(OC)cc3c1C(C2)N(C)CC3 (stereo not drawn) ?
Result: range B

Query: Band for the recorded growth inhibition of Nc1ccnc(=O)[nH]1 ?
Result: range A

Query: Band for the recorded growth inhibition of CC1(C)CNC(=O)C2(C=NC(C)(C)CNC(=O)C3(C=N1)CCCO3)CCCO2 (stereo not drawn) ?
Result: range A

Query: Band for the recorded growth inhibition of NNC(=O)Cc1ccc2ccccc2c1 ?
Result: range C

Query: Band for the recorded growth inhibition of OC(c1ccccc1)(c1ccccc1)c1ccccc1C(O)(c1ccccc1)c1ccccc1 ?
Result: range C

Query: Band for the recorded growth inhibition of CC(C)Oc1ccc(N2C(=O)C(C)CNC2=S)cc1 (stereo not drawn) ?
Result: range B
